Target: PI3Kalpha (Homo sapiens, UniProt P42336)
Construct: His (N); host or cells: SF9 insect cells (baculovirus)
Sequence (P42336 whole entry): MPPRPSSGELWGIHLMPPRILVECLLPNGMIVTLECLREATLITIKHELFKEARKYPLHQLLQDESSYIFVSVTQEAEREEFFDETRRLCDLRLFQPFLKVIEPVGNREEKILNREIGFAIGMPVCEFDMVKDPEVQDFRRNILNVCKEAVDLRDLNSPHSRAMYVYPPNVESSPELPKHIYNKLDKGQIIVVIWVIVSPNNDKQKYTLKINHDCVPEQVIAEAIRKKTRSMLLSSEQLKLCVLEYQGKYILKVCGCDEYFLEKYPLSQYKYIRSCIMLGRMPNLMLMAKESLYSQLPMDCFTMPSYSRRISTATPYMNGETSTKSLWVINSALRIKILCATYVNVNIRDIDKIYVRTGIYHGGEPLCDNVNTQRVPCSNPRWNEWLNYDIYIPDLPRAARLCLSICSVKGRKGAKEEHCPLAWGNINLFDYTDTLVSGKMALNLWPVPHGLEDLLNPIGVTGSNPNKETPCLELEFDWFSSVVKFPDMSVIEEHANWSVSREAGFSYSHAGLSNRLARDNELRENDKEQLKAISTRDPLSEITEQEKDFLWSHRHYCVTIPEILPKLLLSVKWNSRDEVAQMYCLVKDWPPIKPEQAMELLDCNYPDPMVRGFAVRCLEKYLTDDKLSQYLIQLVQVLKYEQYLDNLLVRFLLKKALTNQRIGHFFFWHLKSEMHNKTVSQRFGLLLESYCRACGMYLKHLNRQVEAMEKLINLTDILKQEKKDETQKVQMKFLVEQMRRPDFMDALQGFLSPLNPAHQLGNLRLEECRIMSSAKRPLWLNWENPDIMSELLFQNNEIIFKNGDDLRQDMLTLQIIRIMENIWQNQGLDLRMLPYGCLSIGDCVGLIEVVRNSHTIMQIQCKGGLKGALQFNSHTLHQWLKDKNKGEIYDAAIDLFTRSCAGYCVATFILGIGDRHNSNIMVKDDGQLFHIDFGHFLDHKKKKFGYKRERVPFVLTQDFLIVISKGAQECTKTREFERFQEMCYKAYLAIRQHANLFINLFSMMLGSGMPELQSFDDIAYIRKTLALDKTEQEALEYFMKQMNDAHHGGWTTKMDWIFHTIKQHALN
Sequence (P27986 whole entry partner): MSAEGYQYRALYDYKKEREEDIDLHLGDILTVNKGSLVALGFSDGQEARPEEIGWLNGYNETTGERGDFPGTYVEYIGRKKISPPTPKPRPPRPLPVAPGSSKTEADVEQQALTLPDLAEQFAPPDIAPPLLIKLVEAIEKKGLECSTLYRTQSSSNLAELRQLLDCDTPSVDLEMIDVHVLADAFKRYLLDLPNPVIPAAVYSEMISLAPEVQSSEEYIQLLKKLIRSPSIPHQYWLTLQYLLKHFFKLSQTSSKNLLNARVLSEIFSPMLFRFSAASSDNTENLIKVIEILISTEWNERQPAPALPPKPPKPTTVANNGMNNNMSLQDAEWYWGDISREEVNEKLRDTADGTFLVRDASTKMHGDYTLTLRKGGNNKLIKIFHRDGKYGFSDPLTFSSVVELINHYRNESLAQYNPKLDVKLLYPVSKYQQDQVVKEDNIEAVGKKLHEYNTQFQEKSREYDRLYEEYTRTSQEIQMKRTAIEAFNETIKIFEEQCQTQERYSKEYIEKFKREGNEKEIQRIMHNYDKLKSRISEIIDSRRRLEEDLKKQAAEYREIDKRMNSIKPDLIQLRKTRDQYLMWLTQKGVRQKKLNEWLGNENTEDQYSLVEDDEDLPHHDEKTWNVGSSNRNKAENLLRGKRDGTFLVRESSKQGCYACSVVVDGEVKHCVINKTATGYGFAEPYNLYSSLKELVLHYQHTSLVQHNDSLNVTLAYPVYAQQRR
Assay: Human PI3Kα enzyme assay (HTRF)
Type: biochemical
Settings: read-out: PI3Kalpha % inh
measured property: inhibition at 1.11 µM (%)
# output: bare number, implied unit %

O=C1NCCC(c2ccc(Cl)c(Cl)c2)c2cc(N3CCOCC3)sc21 (stereo not shown); 27.7
O/N=C1\CCC(c2ccc(Cl)cc2)c2cc(-c3ccncc3)sc21 (stereo not shown); 13.8

Record lookup: for PI3Kalpha (Homo sapiens, UniProt P42336), what inhibition at 1.11 µM belongs to `CC(C)NC(=O)[C@@H]1NC(=O)c2sc(N3CCOCC3)cc2[C@H]1c1ccc(Cl)cc1` ? 7.94

Now consider O=C1NCC(c2ccc(Cl)cc2)c2cc(-c3ccncc3)sc21 (stereo not shown) . 6.3

Now consider `CNC(=O)[C@@H]1NC(=O)c2sc(N3CCOCC3)cc2[C@H]1c1ccc(Cl)c(Cl)c1` . 54

Now consider O=C1NCCC(c2ccc(Cl)c(Cl)c2)c2nc(N3CCOCC3)sc21 (stereo not shown) . 24.1

Now consider O=C1NCC(c2ccc(Cl)cc2)c2c1sc(N1CCOCC1)c2Br (single isomer, unassigned) . 8.59

Now consider CC1(C)C(=O)c2sc(N3CCOCC3)cc2C1(C)c1ccc(Cl)cc1 (racemic) . 19.7

Now consider Cc1nn2ccccc2c1-c1nc2c(s1)C(=O)CCC2c1ccc(Cl)cc1 (stereo not shown) . 23.6

Now consider C=Cc1c(N2CCOCC2)sc2c1C(c1ccc(Cl)cc1)CNC2=O (single isomer, unassigned) . 10

----------
Molecular target: VPS34 (Homo sapiens, UniProt Q8NEB9)
Construct: GST (N); host or cells: SF9 insect cells (baculovirus)
Sequence (Q8NEB9 whole entry): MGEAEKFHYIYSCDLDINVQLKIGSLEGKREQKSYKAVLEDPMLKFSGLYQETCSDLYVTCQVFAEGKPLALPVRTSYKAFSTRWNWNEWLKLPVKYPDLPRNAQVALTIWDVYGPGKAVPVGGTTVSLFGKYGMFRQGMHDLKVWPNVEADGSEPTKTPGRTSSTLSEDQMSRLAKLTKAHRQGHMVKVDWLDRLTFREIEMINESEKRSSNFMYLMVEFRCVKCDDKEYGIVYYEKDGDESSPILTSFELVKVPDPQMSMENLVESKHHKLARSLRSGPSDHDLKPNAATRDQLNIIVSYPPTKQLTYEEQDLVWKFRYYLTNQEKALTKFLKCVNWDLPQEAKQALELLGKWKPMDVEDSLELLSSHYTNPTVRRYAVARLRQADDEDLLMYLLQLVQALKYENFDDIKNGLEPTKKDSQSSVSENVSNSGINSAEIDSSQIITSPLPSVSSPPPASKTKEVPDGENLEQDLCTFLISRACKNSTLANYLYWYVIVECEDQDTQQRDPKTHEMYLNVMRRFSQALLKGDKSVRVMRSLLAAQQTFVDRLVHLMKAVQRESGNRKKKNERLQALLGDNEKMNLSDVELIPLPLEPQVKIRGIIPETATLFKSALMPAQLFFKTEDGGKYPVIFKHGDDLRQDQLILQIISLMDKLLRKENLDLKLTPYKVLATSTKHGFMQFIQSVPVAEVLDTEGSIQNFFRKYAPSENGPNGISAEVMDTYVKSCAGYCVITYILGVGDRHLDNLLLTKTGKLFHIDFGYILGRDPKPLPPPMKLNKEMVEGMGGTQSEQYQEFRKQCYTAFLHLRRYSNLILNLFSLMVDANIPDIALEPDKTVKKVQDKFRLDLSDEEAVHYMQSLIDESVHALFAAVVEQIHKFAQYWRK
Assay: Human VPS34 enzyme assay (Adapta Universal Kinase Assay)
Type: biochemical
Conditions: at 1.11 μM
measured property: VPS34 % ihn
Answer with the figure and its unit, nothing else.

O=C1NCCC(c2ccc(Cl)cc2)c2cc(-c3ccncc3)sc21 (single isomer, unassigned); 10.900%
O=S1(=O)NCC(O)(c2ccc(Cl)cc2)c2cc(-c3ccncc3)sc21 (single isomer, unassigned) [Compound 9]; −2.200%
O=S1(=O)NCC(O)(c2ccc(Cl)cc2)c2cc(-c3ccncc3)sc21 (single isomer, unassigned) [Compound 2]; 4.300%
O=C1CC(c2ccc(Cl)cc2)c2cc(N3CCOCC3)sc21 (centres unmarked) [Compound 28]; 8.600%

Okay, next one:
# input compound: O=C1NCC(c2ccc(Cl)cc2)c2cc(-c3ccncc3)sc21 (centres unmarked) [Compound 156] ; wanted: its VPS34 % ihn −0.21%

----------
PI3Kalpha % inh for assorted compounds
Target: PI3Kalpha (Homo sapiens, UniProt P42336)
Construct: His (N); host or cells: SF9 insect cells (baculovirus)
Assay: Human PI3Kα enzyme assay (HTRF)
Assay type: biochemical
Details: at 1.11 μM
# output: bare number, implied unit %

Example results:
O=C1N[C@@H](C(=O)NCCO)[C@H](c2ccc(Cl)cc2)c2cc(N3CCOCC3)sc21 [Compound 153]; 20.40
O=C1CCC(c2ccc(Cl)cc2)c2cc(-c3ccncc3)sc21 (single isomer, unassigned) [Compound 22]; 0.600
CNC(=O)[C@@H]1NC(=O)c2sc(-c3ccncc3)cc2[C@H]1c1ccc(Cl)cc1; 11.18

Okay, next one:
# input compound: `CCCOC(=O)[C@@H]1NC(=O)c2sc(N3CCOCC3)cc2[C@H]1c1ccc(Cl)cc1` ; wanted: its PI3Kalpha % inh 17.00

Values compiled from patent US8765746B2.
